# Tested On: Glycine receptor subunit alpha-1 (Homo sapiens, UniProt P23415)
# Sequence (P23415 whole entry): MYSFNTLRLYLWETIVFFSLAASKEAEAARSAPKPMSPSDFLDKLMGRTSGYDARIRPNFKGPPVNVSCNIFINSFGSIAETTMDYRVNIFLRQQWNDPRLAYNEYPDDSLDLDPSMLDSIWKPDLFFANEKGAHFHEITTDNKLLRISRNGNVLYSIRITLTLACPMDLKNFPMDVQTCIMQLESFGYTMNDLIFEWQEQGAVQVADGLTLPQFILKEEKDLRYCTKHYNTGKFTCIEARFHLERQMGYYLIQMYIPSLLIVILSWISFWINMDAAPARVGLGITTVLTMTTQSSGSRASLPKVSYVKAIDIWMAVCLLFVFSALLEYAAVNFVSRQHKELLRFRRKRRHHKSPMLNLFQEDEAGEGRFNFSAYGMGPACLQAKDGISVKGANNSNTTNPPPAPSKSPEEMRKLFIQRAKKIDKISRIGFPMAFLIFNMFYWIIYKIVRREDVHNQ
# Protocol Text: Antagonist activity at human glycine receptor subunit alpha-1 expressed in HEK293 cells assessed as reduction in glycine-induced currents by whole-cell patch-clamp assay
# Type: cell-based
Value Type: pIC50
The meaning of pIC50 here: minus log10 of the concentration in molar units.

[
  {
    "Structure Notation": "O=C(CCCCCCCCCCC(=O)NCC(=O)Nc1ccc2c(c1)[C@@]13CCN4CC5=CCO[C@H]6CC(=O)N2[C@H]1[C@H]6[C@H]5C[C@H]43)NCC(=O)Nc1ccc2c(c1)[C@@]13CCN4CC5=CCO[C@H]6CC(=O)N2[C@H]1[C@H]6[C@H]5C[C@H]43",
    "Measured Result": 7.00
  },
  {
    "Structure Notation": "O=C(CCCCCCCCCCCCCCCCCCCCC(=O)NCCCCCCCCCCC(=O)Nc1ccc2c(c1)[C@@]13CCN4CC5=CCO[C@H]6CC(=O)N2[C@H]1[C@H]6[C@H]5C[C@H]43)NCCCCCCCCCCC(=O)Nc1ccc2c(c1)[C@@]13CCN4CC5=CCO[C@H]6CC(=O)N2[C@H]1[C@H]6[C@H]5C[C@H]43",
    "Measured Result": 5.54
  },
  {
    "Structure Notation": "O=C(CCCCCCC(=O)NCC(=O)Nc1ccc2c(c1)[C@@]13CCN4CC5=CCO[C@H]6CC(=O)N2[C@H]1[C@H]6[C@H]5C[C@H]43)NCC(=O)Nc1ccc2c(c1)[C@@]13CCN4CC5=CCO[C@H]6CC(=O)N2[C@H]1[C@H]6[C@H]5C[C@H]43",
    "Measured Result": 6.77
  },
  {
    "Structure Notation": "O=C(CCCCCCCC(=O)NCC(=O)Nc1ccc2c(c1)[C@@]13CCN4CC5=CCO[C@H]6CC(=O)N2[C@H]1[C@H]6[C@H]5C[C@H]43)NCC(=O)Nc1ccc2c(c1)[C@@]13CCN4CC5=CCO[C@H]6CC(=O)N2[C@H]1[C@H]6[C@H]5C[C@H]43",
    "Measured Result": 6.40
  },
  {
    "Structure Notation": "O=C1C[C@@H]2OCC=C3CN4CC[C@]56c7ccccc7N1[C@H]5[C@H]2[C@H]3C[C@H]46",
    "Measured Result": 7.30
  }
]

response.value for "O=C(CCCCCCCCCCC(=O)NCCCCCCCCCCC(=O)Nc1ccc2c(c1)[C@@]13CCN4CC5=CCO[C@H]6CC(=O)N2[C@H]1[C@H]6[C@H]5C[C@H]43)NCCCCCCCCCCC(=O)Nc1ccc2c(c1)[C@@]13CCN4CC5=CCO[C@H]6CC(=O)N2[C@H]1[C@H]6[C@H]5C[C@H]43" (field: pIC50) = 5.51

response.value for "O=C(CCCCCCCCCCC(=O)Nc1ccc2c(c1)[C@@]13CCN4CC5=CCO[C@H]6CC(=O)N2[C@H]1[C@H]6[C@H]5C[C@H]43)Nc1ccc2c(c1)[C@@]13CCN4CC5=CCO[C@H]6CC(=O)N2[C@H]1[C@H]6[C@H]5C[C@H]43" (field: pIC50) = 6.14

response.value for "O=C(CCCCCCC(=O)NCCCCCCCCCCC(=O)Nc1ccc2c(c1)[C@@]13CCN4CC5=CCO[C@H]6CC(=O)N2[C@H]1[C@H]6[C@H]5C[C@H]43)NCCCCCCCCCCC(=O)Nc1ccc2c(c1)[C@@]13CCN4CC5=CCO[C@H]6CC(=O)N2[C@H]1[C@H]6[C@H]5C[C@H]43" (field: pIC50) = 5.85

====

Measured Ki, listed per entry.
# Tested On: Glycine receptor subunit alpha-1 (Homo sapiens, UniProt P23415)
# Sequence (P23415 whole entry): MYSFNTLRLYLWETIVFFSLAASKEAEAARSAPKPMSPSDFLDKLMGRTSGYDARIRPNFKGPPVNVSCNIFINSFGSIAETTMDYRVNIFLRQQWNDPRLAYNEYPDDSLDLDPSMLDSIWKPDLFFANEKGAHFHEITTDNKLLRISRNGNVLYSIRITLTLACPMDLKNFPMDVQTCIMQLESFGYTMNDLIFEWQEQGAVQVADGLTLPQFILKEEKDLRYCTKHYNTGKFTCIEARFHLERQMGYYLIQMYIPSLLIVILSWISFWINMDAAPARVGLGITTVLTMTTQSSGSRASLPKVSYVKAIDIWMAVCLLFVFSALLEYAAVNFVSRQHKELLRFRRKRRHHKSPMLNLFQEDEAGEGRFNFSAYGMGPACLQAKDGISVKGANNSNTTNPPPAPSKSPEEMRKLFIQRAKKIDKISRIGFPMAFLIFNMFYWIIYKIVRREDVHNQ
# Protocol Text: Displacement of [3H]strychnine from human glycine receptor subunit alpha-1 expressed in HEK293 cell membranes preincubated for 30 mins followed by [3H]strychnine addition and measured after 30 mins by liquid scintillation counting method

[
  {
    "Compound": "O=C(CCOCCOCCOCCOCCOCCOCCOCCOCCOCCOCCOCCOCCC(=O)NCCCCC(=O)Nc1ccc2c(c1)[C@@]13CCN4CC5=CCO[C@H]6CC(=O)N2[C@H]1[C@H]6[C@H]5C[C@H]43)NCCCCC(=O)Nc1ccc2c(c1)[C@@]13CCN4CC5=CCO[C@H]6CC(=O)N2[C@H]1[C@H]6[C@H]5C[C@H]43",
    "Ki": "81 nM"
  },
  {
    "Compound": "O=C(CCOCCOCCOCCOCCOCCOCCOCCOCCOCCOCCOCCOCCC(=O)NCCCCCCCCCCC(=O)Nc1ccc2c(c1)[C@@]13CCN4CC5=CCO[C@H]6CC(=O)N2[C@H]1[C@H]6[C@H]5C[C@H]43)NCCCCCCCCCCC(=O)Nc1ccc2c(c1)[C@@]13CCN4CC5=CCO[C@H]6CC(=O)N2[C@H]1[C@H]6[C@H]5C[C@H]43",
    "Ki": "204 nM"
  },
  {
    "Compound": "O=C1C[C@@H]2OCC=C3CN4CC[C@]56c7ccccc7N1[C@H]5[C@H]2[C@H]3C[C@H]46 [STRYCHNINE]",
    "Ki": "5 nM"
  }
]

response.value for "COCCOCCOCCOCCOCCOCCOCCOCCOCCOCCOCCOCCC(=O)NCCCCCCCCCCC(=O)Nc1ccc2c(c1)[C@@]13CCN4CC5=CCO[C@H]6CC(=O)N2[C@H]1[C@H]6[C@H]5C[C@H]43" (field: Ki) = 977 nM

response.value for "COCCOCCOCCOCCOCCOCCOCCOCCOCCOCCOCCOCCC(=O)NCCCCC(=O)Nc1ccc2c(c1)[C@@]13CCN4CC5=CCO[C@H]6CC(=O)N2[C@H]1[C@H]6[C@H]5C[C@H]43" (field: Ki) = 436 nM

====

Measured IC50, listed per entry.
# Tested On: Glycine receptor subunit alpha-1 (Homo sapiens, UniProt P23415)
# Sequence (P23415 whole entry): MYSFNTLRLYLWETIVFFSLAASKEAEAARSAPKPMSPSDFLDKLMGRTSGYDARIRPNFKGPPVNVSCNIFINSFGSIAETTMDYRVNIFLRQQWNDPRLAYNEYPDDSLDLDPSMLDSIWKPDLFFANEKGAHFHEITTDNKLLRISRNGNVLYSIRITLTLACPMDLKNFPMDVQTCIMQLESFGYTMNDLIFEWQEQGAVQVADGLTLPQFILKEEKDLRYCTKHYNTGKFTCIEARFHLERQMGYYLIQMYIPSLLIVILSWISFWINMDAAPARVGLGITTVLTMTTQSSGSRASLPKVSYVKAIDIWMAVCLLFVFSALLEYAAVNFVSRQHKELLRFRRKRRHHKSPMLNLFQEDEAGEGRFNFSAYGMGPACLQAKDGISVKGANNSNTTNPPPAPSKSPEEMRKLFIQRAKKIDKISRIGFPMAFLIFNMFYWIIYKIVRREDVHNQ
# Protocol Text: Antagonist activity at human glycine receptor subunit alpha-1 expressed in human tsA201 cells assessed as reduction in glycine-induced response incubated for 30 mins by fluorescence-based FLIPR membrane potential blue assay
# Type: cell-based
# Details: read-out: IC50
Just the number in µM, nothing appended.

[
  {
    "Structure Notation": "O=C(CCCCCCCCC(=O)Nc1ccc2c(c1)[C@@]13CCN4CC5=CCO[C@H]6CC(=O)N2[C@H]1[C@H]6[C@H]5C[C@H]43)Nc1ccc2c(c1)[C@@]13CCN4CC5=CCO[C@H]6CC(=O)N2[C@H]1[C@H]6[C@H]5C[C@H]43",
    "Quantity Unit": "µM",
    "Measured Result": 7.2
  },
  {
    "Structure Notation": "O=C(CCCCCCCCCCCCC(=O)NCC(=O)Nc1ccc2c(c1)[C@@]13CCN4CC5=CCO[C@H]6CC(=O)N2[C@H]1[C@H]6[C@H]5C[C@H]43)NCC(=O)Nc1ccc2c(c1)[C@@]13CCN4CC5=CCO[C@H]6CC(=O)N2[C@H]1[C@H]6[C@H]5C[C@H]43",
    "Quantity Unit": "µM",
    "Measured Result": 1.7
  },
  {
    "Structure Notation": "O=C(CCCCCC(=O)NCC(=O)Nc1ccc2c(c1)[C@@]13CCN4CC5=CCO[C@H]6CC(=O)N2[C@H]1[C@H]6[C@H]5C[C@H]43)NCC(=O)Nc1ccc2c(c1)[C@@]13CCN4CC5=CCO[C@H]6CC(=O)N2[C@H]1[C@H]6[C@H]5C[C@H]43",
    "Quantity Unit": "µM",
    "Measured Result": 2.8
  },
  {
    "Structure Notation": "O=C(CCOCCOCCOCCOCCOCCOCCOCCOCCOCCOCCOCCOCCC(=O)NCCCCCCCCCCC(=O)Nc1ccc2c(c1)[C@@]13CCN4CC5=CCO[C@H]6CC(=O)N2[C@H]1[C@H]6[C@H]5C[C@H]43)NCCCCCCCCCCC(=O)Nc1ccc2c(c1)[C@@]13CCN4CC5=CCO[C@H]6CC(=O)N2[C@H]1[C@H]6[C@H]5C[C@H]43",
    "Quantity Unit": "µM",
    "Measured Result": 10
  }
]

response.value for "O=C(CCCCCCC(=O)Nc1ccc2c(c1)[C@@]13CCN4CC5=CCO[C@H]6CC(=O)N2[C@H]1[C@H]6[C@H]5C[C@H]43)Nc1ccc2c(c1)[C@@]13CCN4CC5=CCO[C@H]6CC(=O)N2[C@H]1[C@H]6[C@H]5C[C@H]43" (field: IC50) = 6.9

response.value for "O=C(CCCCCCCCCCCCCCC(=O)NCCCCC(=O)Nc1ccc2c(c1)[C@@]13CCN4CC5=CCO[C@H]6CC(=O)N2[C@H]1[C@H]6[C@H]5C[C@H]43)NCCCCC(=O)Nc1ccc2c(c1)[C@@]13CCN4CC5=CCO[C@H]6CC(=O)N2[C@H]1[C@H]6[C@H]5C[C@H]43" (field: IC50) = 7.9
